# Tested on: Semliki Forest virus
# RUN_DESCRIPTION: Antiviral activity against Forest virus (SFV)
# Format: functional
READOUT_KIND: ED50 (mg/kg)
Your answer should be a plain number; it is taken to be in mg/kg.

{"columns": ["COMPOUND", "READOUT_UNIT", "ED50"],
 "data": [
  ["Nc1nc(O)c(I)c(-c2cccc3ccccc23)n1", "mg/kg", 70],
  ["Nc1nc(=O)c(Br)c(-c2ccccc2)[nH]1 [BROPIRIMINE]", "mg/kg", 100],
  ["Nc1nc(O)c(I)c(-c2ccccn2)n1", "mg/kg", 215],
  ["Cc1ccc(-c2nc(N)nc(O)c2Br)cc1", "mg/kg", 200]
]}

Let us move to another entry and its ED50.
-- ask What value of ED50 has been reported for the following compound? Nc1nc(O)c(Cl)c(-c2ccco2)n1
-- reply 120
